Biological target: human 5HT1A-serotonergic receptor (Homo sapiens, UniProt P08908)
Construct: cell membranes used
Sequence (P08908 1-422): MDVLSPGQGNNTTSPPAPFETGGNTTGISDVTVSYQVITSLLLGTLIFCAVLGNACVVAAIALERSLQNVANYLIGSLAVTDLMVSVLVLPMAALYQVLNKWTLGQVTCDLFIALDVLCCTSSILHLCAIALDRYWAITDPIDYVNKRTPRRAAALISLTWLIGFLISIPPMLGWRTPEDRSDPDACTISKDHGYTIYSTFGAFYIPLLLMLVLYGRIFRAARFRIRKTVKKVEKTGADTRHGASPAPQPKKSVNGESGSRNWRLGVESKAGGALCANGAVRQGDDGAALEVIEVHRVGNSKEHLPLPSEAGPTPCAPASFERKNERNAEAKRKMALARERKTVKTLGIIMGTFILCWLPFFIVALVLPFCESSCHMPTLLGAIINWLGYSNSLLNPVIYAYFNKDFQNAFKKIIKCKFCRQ
Assay: Radioligand binding to recombinant 5-HT1A receptors
Settings: [3H]8-OH-DPAT 1 nM, membranes of HeLa cells with human 5-HT1A receptor; Ki from IC50 by Cheng & Prusoff; read-out: Binding affinity for 5HT1A receptors, Ki
In plain terms, low Ki, meaning strictly below 8 nM, gives Condition met, and everything else gives Condition not met.

Solved cases below.
INSERT INTO assay_data (molecule, label_class) VALUES
  ('COc1cc(F)ccc1N1CCN(CC2CCc3cccc(C)c3N2C(=O)C2CCCCC2)CC1 (stereo not shown) [Example 67]', 'Condition not met'),
  ('O=C(CCCc1ccccc1)N1c2ccccc2CCC1CN1CCN(c2cccc3[nH]ccc23)CC1 (stereo not shown) [Example 68A66]', 'Condition not met'),
  ('O=C(c1ccc(O)cc1)N1c2ccccc2CCC1CN1CCN(c2cccc3[nH]ccc23)CC1 (stereo not shown) [Example 68A68]', 'Condition met'),
  ('O=S(=O)(Cc1ccccc1)N1c2ccccc2CCC1CN1CCN(c2cccc3c2OCCO3)CC1 (stereo not shown) [Example 76A11]', 'Condition met'),
  ('CC(C)(C)C(=O)N1c2ccccc2CCC1CN1CCN(c2cccc3[nH]ccc23)CC1 (stereo not shown) [Example 68A36]', 'Condition not met');

Quick check: Ki of O=C(Cc1ccc(Cl)cc1)N1c2ccccc2CCC1CN1CCN(c2cccc3[nH]ccc23)CC1 (stereo not shown) [Example 68A30] under 8 nM?
Condition not met

Report whether reported Ki is lower than 8 nM (strictly) for O=C(CCc1ccccc1)N1c2ccccc2CCC1CN1CCN(c2cccc3[nH]ccc23)CC1 (stereo not shown) [Example 68A24]
Condition not met

Here's an entry: O=C(C1CCCCC1)N1c2ccccc2CCC1CN1CCN(c2cc(Cl)cc3c2OCCO3)CC1 (stereo not shown) [Example 60A11] . Is its Ki below 8 nM?
Condition not met

Confirm or reject: Ki of COc1cccc(N2CCN(CC3CCc4ccccc4N3C(=O)C3CCCCC3)CC2)n1 (stereo not shown) [Example 35A35] lies strictly below 8 nM
Condition met

Consider O=C(COc1ccccc1Cl)N1c2ccccc2CCC1CN1CCN(c2cccc3[nH]ccc23)CC1 (stereo not shown) [Example 68A50] . Does its Ki lie strictly below 8 nM?
Condition not met
